- measurementNotes: in vivo
- assaySetup: mouse, po
Counter-ions that a name gives are not always drawn.
observable: LD50 at 168 h

Report LD50 at 168 h for CCc1ccc(C(=O)C(C)CN2CCCCC2)cc1 (stereo not shown) [Reference Drug, Eperisone hydrochloride, reference compound] please.
332 mg/kg

* * *

- measurementNotes: in vivo
- assaySetup: mouse, oral, deaths within 7 days, Probit method, n=5 per group
observable: LD50 at 168 h (mg/kg)
Record the value in mg/kg, omitting the unit from your answer.

Report LD50 at 168 h for CCCCc1ccc(C(=O)C(C)CN2CCCC2)cc1 (stereo not shown) [Compound 1] please.
520
